- Test method notes: Metabolic stability by incubation with human liver microsomes
- Format: ADME, Microsome
Entries and their log10 of half-life
Endpoint label: log10 of half-life (log10 of the value in h)

{"columns": ["Chemical structure", "Endpoint label", "Recorded measurement"],
 "data": [
  ["[2H]C([2H])([2H])Oc1cccc([C@@]2(O)CCCC[C@@H]2CN(C([2H])([2H])[2H])C([2H])([2H])[2H])c1", "log10 of half-life", 2.08],
  ["[2H]C([2H])([2H])Oc1cccc([C@@]2(O)CCCC[C@@H]2CN(C)C)c1", "log10 of half-life", 1.09],
  ["COc1cccc([C@@]2(O)CCCC[C@@H]2CN(C)C)c1", "log10 of half-life", 1.09],
  ["[2H]C([2H])([2H])N(C[C@H]1CCCC[C@]1(O)c1cccc(O)c1)C([2H])([2H])[2H]", "log10 of half-life", 1.09],
  ["[2H]C([2H])([2H])N(C[C@H]1CCCC[C@]1(O)c1cccc(OC)c1)C([2H])([2H])[2H]", "log10 of half-life", 0.96],
  ["CN(C)C[C@H]1CCCC[C@]1(O)c1cccc(O)c1", "log10 of half-life", 1.67]
]}
